procedureSummary: Pharmacokinetics of diclofenac in rats after 3 days administration of sesamin
Assay type: in vivo, rat
conditionDescription: rat, plasma, po, 10 mg/kg, t1/2, diclofenac 10 mg/kg bw intragastric, control (0 mg/kg bw sesamin for 3 days)

{"chemicalSmiles": "O=C(O)Cc1ccccc1Nc1c(Cl)cccc1Cl", "half-life / h": 10.6}

----------
Format: in vivo, rat
conditionDescription: rat, plasma, po, 10 mg/kg, AUC0–24 h, diclofenac 10 mg/kg bw intragastric, rats; control (0 mg/kg bw sesamin at same time)

{"chemicalSmiles": "O=C(O)Cc1ccccc1Nc1c(Cl)cccc1Cl", "AUC(0-t) [ng·h/mL]": 5480}

----------
testedTarget: CYP2C9 (Homo sapiens, UniProt P11712)
Sequence (P11712 whole entry): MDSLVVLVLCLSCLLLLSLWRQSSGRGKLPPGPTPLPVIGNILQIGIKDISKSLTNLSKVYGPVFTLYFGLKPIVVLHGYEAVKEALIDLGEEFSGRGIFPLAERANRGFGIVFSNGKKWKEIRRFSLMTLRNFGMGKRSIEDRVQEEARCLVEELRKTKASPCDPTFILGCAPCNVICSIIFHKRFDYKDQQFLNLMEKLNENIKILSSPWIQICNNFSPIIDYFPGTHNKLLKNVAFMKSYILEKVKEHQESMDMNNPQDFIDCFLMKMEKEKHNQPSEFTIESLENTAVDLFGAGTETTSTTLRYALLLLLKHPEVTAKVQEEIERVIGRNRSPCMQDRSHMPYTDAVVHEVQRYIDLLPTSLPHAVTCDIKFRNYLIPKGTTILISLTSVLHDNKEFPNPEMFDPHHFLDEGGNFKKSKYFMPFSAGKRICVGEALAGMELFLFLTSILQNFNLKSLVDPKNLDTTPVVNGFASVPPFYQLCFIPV
Type: biochemical
conditionDescription: human liver microsomes, pH 7.4, probe diclofenac (100 μmol/L), diclofenac hydroxylation
measurementKind: kinact (s⁻¹)

{"chemicalSmiles": "c1cc2c(cc1[C@H]1OC[C@H]3[C@@H]1CO[C@@H]3c1ccc3c(c1)OCO3)OCO2", "measurementKind": "kinact", "observedResult": 0.00217}

----------
Type: in vivo, rat
conditionDescription: rat, plasma, po, 10 mg/kg, Tmax, diclofenac 10 mg/kg bw intragastric, rats; control (0 mg/kg bw sesamin at same time)

{"chemicalSmiles": "O=C(O)Cc1ccccc1Nc1c(Cl)cccc1Cl", "Tmax, min": 5.6}

----------
procedureSummary: Pharmacokinetics of diclofenac in rats after 3 days administration of sesamin
Assay type: in vivo, rat
conditionDescription: rat, plasma, po, 10 mg/kg, AUC0–24 h, diclofenac 10 mg/kg bw intragastric, after sesamin 10 mg/kg bw for 3 days
measurementKind: AUC(0-t) (ng·h/mL)

{"compound": "O=C(O)Cc1ccccc1Nc1c(Cl)cccc1Cl [diclofenac]", "measurementKind": "AUC(0-t)", "observedResult": 4620}

----------
procedureSummary: Pharmacokinetics of diclofenac in rats after 3 days administration of sesamin
Format: in vivo, rat
conditionDescription: rat, plasma, po, 10 mg/kg, AUC0–24 h, diclofenac 10 mg/kg bw intragastric, after sesamin 100 mg/kg bw for 3 days

{"chemicalSmiles": "O=C(O)Cc1ccccc1Nc1c(Cl)cccc1Cl", "AUC(0-t)": "6930 ng·h/mL"}

----------
procedureSummary: Plasma concentration of sesamin in rats
Type: in vivo
conditionDescription: rat, po, 100 mg/kg
measurementKind: Tmax (h)

{"chemicalSmiles": "c1cc2c(cc1[C@H]1OC[C@H]3[C@@H]1CO[C@@H]3c1ccc3c(c1)OCO3)OCO2", "measurementKind": "Tmax", "unit": "h", "observedResult": 1.2}

----------
procedureSummary: Pharmacokinetics of diclofenac in rats after 3 days administration of sesamin
Assay type: in vivo, rat
conditionDescription: rat, plasma, po, 10 mg/kg, Tmax, diclofenac 10 mg/kg bw intragastric, after sesamin 10 mg/kg bw for 3 days
measurementKind: Tmax

{"chemicalSmiles": "O=C(O)Cc1ccccc1Nc1c(Cl)cccc1Cl", "measurementKind": "Tmax", "observedResult": "7 min"}

----------
procedureSummary: Pharmacokinetics of diclofenac in rats after 3 days administration of sesamin
Assay type: in vivo, rat
conditionDescription: rat, plasma, po, 10 mg/kg, Cmax, diclofenac 10 mg/kg bw intragastric, control (0 mg/kg bw sesamin for 3 days)
measurementKind: Cmax (ng/mL)

{"chemicalSmiles": "O=C(O)Cc1ccccc1Nc1c(Cl)cccc1Cl", "observedResult": 1800}

----------
procedureSummary: Pharmacokinetics of diclofenac in rats after 3 days administration of sesamin
Assay type: in vivo, rat
conditionDescription: rat, plasma, po, 10 mg/kg, t1/2, diclofenac 10 mg/kg bw intragastric, after sesamin 100 mg/kg bw for 3 days

{"compound": "O=C(O)Cc1ccccc1Nc1c(Cl)cccc1Cl [diclofenac]", "half-life / h": 11.1}

Data credit: paper PMC4618645
